test system: Huh7-NC12 cells; experiment: PrestoBlue cell viability of liver cancer cells; conditions: high concentrations (>3160 nM)
assay-metric: toxicity to Huh7-NC12 cells

Check out these entries, answers already filled in.
**Query** Give a short answer stating reported toxicity to Huh7-NC12 cells for O=C(Nc1ccc(F)cc1)Nc1ccc(Nc2nc(/C=C/c3ccc(Cl)cc3)nc(N3CCOCC3)n2)cc1 [Compound C45] .
**Result** not toxic

**Query** Specify measured toxicity to Huh7-NC12 cells for CN1CCN(C(=O)c2ccc(NC(=O)Nc3ccc(Nc4nc(/C=C/c5ccccc5)nc(N5CCOCC5)n4)cc3)cc2)CC1 [Compound C69B] .
**Result** cytotoxic

**Query** Give toxicity to Huh7-NC12 cells for the following molecule: O=C(Nc1ccc(F)cc1)Nc1ccc(Nc2nc(/C=C/c3ccccc3)nc(N3CCOCC3)n2)cc1 [Compound C52]
**Result** not toxic

**Query** Output measured toxicity to Huh7-NC12 cells for this item: O=C(Nc1ccc(Nc2nc(/C=C/c3ccccc3)nc(N3CCOCC3)n2)cc1)Nc1ccc(C(=O)O)cc1 [Compound C69A]
**Result** not toxic

Please find the next molecule below.
**Query** Item O=C(Nc1ccc(Nc2nc(/C=C/c3ccccc3)nc(N3CCOCC3)n2)cc1)Nc1ccnc(Cl)c1 [Compound C52M] : provide toxicity to Huh7-NC12 cells
**Result** cytotoxic

###

test system: HEK293T cells; test: Liposome-mediated pMAX-GFP transfection (endocytosis and endosomal trafficking); assay type: cell-based; details: C52 during entire transfection period; read-out: EC50 for inhibition of the whole process
assay-metric: EC50 (nM)
Give bare numbers, in nM.

**Query** Provide EC50 value for the following compound: O=C(Nc1ccc(F)cc1)Nc1ccc(Nc2nc(/C=C/c3ccccc3)nc(N3CCOCC3)n2)cc1
**Result** 45

###

system: Pseudovirus-2019-nCoV; details: read-out: IC50 of inhibition of pseudovirus infection
assay-metric: IC50

**Query** Tell me measured IC50 for O=C(Nc1ccc(F)cc1)Nc1ccc(Nc2nc(/C=C/c3ccccc3)nc(N3CCOCC3)n2)cc1 please.
**Result** < 50 nM

###

system: Huh7-NC12 cells; test: PrestoBlue cell viability of liver cancer cells; conditions: 48 h; highest concentration 10,000 nM; high concentrations 3,160 and 10,000 nM
assay-metric: cytotoxicity

**Query** Input O=C(Nc1ccc(Nc2nc(/C=C/c3ccccc3)nc(N3CCOCC3)n2)cc1)Nc1ccnc(Cl)c1 [Compound C52M] , output reported cytotoxicity.
**Result** cytotoxic

**Query** Please report the measured cytotoxicity for O=C(Nc1ccc(Nc2nc(/C=C/c3ccccc3)nc(N3CCOCC3)n2)cc1)Nc1ccc(C(=O)O)cc1 [Compound C69A]
**Result** not cytotoxic

**Query** Annotate the compound O=C(Nc1ccc(F)cc1)Nc1ccc(Nc2nc(/C=C/c3ccccc3)nc(N3CCOCC3)n2)cc1 [Compound C52] with its measured cytotoxicity.
**Result** not cytotoxic

**Query** Tell me measured cytotoxicity for CN1CCN(C(=O)c2ccc(NC(=O)Nc3ccc(Nc4nc(/C=C/c5ccccc5)nc(N5CCOCC5)n4)cc3)cc2)CC1 [Compound C69B] please.
**Result** cytotoxic

**Query** State its cytotoxicity: O=C(Nc1ccc(F)cc1)Nc1ccc(Nc2nc(/C=C/c3ccc(Cl)cc3)nc(N3CCOCC3)n2)cc1 [Compound C45]
**Result** not cytotoxic

Consider now this further compound.
**Query** # return recorded cytotoxicity for input O=C(/C=C/c1ccc(/C=C/C(=O)Nc2ccc(C3=NCCN3)cc2)cc1)Nc1ccc(C2=NCCN2)cc1 [GW4869, reference compound]
**Result** not cytotoxic
